- experimental_system: T1, cynomolgus monkey TSLP (cynomolgus monkey, UniProt A0A7N9CAT7 29-159)
- T1 construct: also called cynomolgus TSLP; recombinant cynomolgus monkey TSLP
- T1 sequence (A0A7N9CAT7 entry or part of it): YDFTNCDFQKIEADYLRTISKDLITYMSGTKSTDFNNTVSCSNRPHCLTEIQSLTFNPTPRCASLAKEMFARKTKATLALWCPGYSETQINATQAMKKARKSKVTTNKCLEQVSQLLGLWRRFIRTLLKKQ
- experiment_summary: ELISA, plate coated with cynomolgus monkey TSLP, test antibodies as human IgG1

[
  {
    "binder": "TSLP-0202 (antibody, V domains shown, also called TSLP-0202-IgG1) VH: QVQLVQSGAEVKKPGSSVKVSCKASGFTFGSYGINWVRQAPGQGLEWMGVIVPLVGVTIYAEKFQGRVTITADESTSTAYMELSSLRSEDTAVYYCARGQEYFYWYFDLWGQGTLVTVSS VL: QSALTQPPSASGSPGQSVTISCSGSSSDIGGYNRVSWYQQHPGKAPKLMIYDVSKRPSGVPDRFSGSKSGNTASLTVSGLQAEDEADYYCSSYAGTDTFILFGGGTKLTVL",
    "EC50 (read off the curve)": "~0.7 µg/mL"
  }
]
